# Tested on: MDR1
# Assay: MDR1-MDCK Permeability
# Type: in vitro ADME
# Particulars: dog, MDCK-MDR1, pH 7.4, A to B; read-out: Papp Avg

[
  {
    "Molecule": "Cl.Cl.NCC(C(=O)Nc1ccc2cnccc2c1)c1ccc(B(O)O)cc1 (stereo not shown) [Compound 10]",
    "Papp at 120 min, 5 μM": "< 0.0566 ×10⁻⁶ cm/s"
  }
]

* * *

# Assay: Stability in buffer, plasma, and blood (LC-MS/MS)
# Type: in vitro ADME, human
# Set-up: dose or concentration left out as unconfirmed
# Particulars: pH 7.4 phosphate buffer; Buffer pH 7.4, 37° C.

[
  {
    "Molecule": "Cl.Cl.NCC(C(=O)Nc1ccc2cnccc2c1)c1ccc(B(O)O)cc1 (stereo not shown) [Compound 10•2HCl]",
    "half-life": "> 2 h"
  }
]

* * *

# Measured On: ROCK2 (Homo sapiens (Human), UniProt O75116)
# Sequence (O75116 whole entry): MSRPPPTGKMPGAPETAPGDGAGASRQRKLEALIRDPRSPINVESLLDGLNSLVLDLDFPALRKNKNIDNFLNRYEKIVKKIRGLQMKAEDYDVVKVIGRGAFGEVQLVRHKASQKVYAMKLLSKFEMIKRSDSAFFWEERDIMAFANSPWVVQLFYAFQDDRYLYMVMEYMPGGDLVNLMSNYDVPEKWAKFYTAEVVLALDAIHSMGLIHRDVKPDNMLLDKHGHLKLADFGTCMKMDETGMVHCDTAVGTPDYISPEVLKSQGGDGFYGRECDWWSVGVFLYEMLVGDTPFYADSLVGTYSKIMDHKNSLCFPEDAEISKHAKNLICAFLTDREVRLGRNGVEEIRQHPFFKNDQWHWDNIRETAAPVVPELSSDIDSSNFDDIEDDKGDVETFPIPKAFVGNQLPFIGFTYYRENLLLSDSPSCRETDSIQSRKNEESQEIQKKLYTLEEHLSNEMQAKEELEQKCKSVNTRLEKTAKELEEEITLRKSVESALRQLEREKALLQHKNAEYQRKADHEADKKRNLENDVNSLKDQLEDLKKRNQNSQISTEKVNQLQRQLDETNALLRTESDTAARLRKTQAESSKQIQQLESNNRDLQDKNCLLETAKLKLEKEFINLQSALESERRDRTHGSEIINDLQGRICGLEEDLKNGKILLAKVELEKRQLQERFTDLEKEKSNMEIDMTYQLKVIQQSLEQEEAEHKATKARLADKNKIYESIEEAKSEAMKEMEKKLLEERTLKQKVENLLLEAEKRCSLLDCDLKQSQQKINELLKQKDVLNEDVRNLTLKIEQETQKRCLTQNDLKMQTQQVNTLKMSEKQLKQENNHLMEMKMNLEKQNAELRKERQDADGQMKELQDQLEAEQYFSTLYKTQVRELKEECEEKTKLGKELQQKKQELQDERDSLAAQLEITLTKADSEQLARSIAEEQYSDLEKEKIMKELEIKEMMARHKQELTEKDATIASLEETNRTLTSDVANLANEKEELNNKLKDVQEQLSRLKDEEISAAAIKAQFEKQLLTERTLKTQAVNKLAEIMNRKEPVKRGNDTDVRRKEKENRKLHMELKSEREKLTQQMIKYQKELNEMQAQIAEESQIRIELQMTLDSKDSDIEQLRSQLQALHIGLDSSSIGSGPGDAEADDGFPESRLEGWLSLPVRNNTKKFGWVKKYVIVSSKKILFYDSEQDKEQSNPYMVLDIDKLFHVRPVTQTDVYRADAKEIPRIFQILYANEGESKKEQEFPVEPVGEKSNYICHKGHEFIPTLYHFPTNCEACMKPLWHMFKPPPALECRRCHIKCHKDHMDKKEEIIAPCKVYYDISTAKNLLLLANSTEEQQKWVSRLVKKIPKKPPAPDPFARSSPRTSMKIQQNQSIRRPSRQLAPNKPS
# Assay: ROCK2 ADP-Glo kinase enzyme inhibition assay
# Assay type: biochemical
# Particulars: Exp #1; read-out: ROCK2 IC50(Exp #1)
Readout Type: IC50 (µM)

[
  {
    "Molecule": "Cl.Cl.NCC(C(=O)Nc1ccc2cnccc2c1)c1ccc(B(O)O)cc1 (stereo not shown)",
    "Value Measured": 0.027
  }
]

* * *

# Assay: Caco-2 Permeability
# Type: in vitro ADME
# Particulars: human, Caco-2, pH 7.4, B to A; read-out: Papp Avg

[
  {
    "Compound": "Cl.Cl.NCC(C(=O)Nc1ccc2cnccc2c1)c1ccc(B(O)O)cc1 (stereo not shown)",
    "Unit Name": "×10⁻⁶ cm/s",
    "Papp at 120 min, 5 μM": 0.496
  }
]

* * *

# Assay: Caco-2 Permeability
# Format: in vitro ADME
# Particulars: human, Caco-2, pH 7.4, A to B; read-out: Papp R2
# Method: Caco-2 Permeability. Experiment was conducted by Absorption Systems. Caco-2 cells (clone C2BBe1) were obtained from American Type Culture Collection (Manassas, VA). Cell monolayers were grown to confluence on collagen-coated, microporous membranes in 12-well assay plates. […] The flux of lucifer yellow was also measured post-experimentally for each monolayer to ensure no damage was inflicted to the cell monolayers during the flux period. […]

[
  {
    "Molecule": "Cl.Cl.NCC(C(=O)Nc1ccc2cnccc2c1)c1ccc(B(O)O)cc1 (stereo not shown)",
    "Papp at 120 min, 5 μM / ×10⁻⁶ cm/s": 0.176
  }
]

* * *

# Assay: Caco-2 Permeability
# Format: in vitro ADME
# Particulars: human, Caco-2, pH 7.4, B to A, 5 μM, 120 minutes
Readout Type: recovery at 120 min, 5 μM (%)

[
  {
    "Compound": "Cl.Cl.NCC(C(=O)Nc1ccc2cnccc2c1)c1ccc(B(O)O)cc1 (stereo not shown) [Compound 10]",
    "Unit Name": "%",
    "Value Measured": 103
  }
]

* * *

# Measured On: PKA-NanoLuc fusion protein (Homo sapiens (Human))
# Assay: PKA-NanoBRET Target Engagement Intracellular Kinase Assay in HEK293 cells
# Format: cell-based
# Particulars: live HEK293 cells, 2 hours; read-out: Estimated IC50, inhibition of NanoBRET tracer binding to PKA
Readout Type: IC50 (nM)

[
  {
    "Molecule": "Cl.Cl.NCC(C(=O)Nc1ccc2cnccc2c1)c1ccc(B(O)O)cc1 (stereo not shown) [Compound 10•2HCl]",
    "Value Measured": 1420
  }
]

* * *

# Assay: Stability in liver microsomes (LC-MS/MS)
# Format: in vitro ADME
# Particulars: both sexes, pH 7.4; Human liver microsomes

[
  {
    "Molecule": "Cl.Cl.NCC(C(=O)Nc1ccc2cnccc2c1)c1ccc(B(O)O)cc1 (stereo not shown) [Compound 10•2HCl]",
    "microsomal CLint at 1 μM": "< 23.1 µL/min/mg"
  }
]

* * *

# Assay: Caco-2 Permeability
# Assay type: in vitro ADME
# Particulars: human, Caco-2, pH 7.4, A to B, 5 μM, 120 minutes
# Experimental: Caco-2 Permeability. Experiment was conducted by Absorption Systems. Caco-2 cells (clone C2BBe1) were obtained from American Type Culture Collection (Manassas, VA). Cell monolayers were grown to confluence on collagen-coated, microporous membranes in 12-well assay plates. […] The flux of lucifer yellow was also measured post-experimentally for each monolayer to ensure no damage was inflicted to the cell monolayers during the flux period. […]

[
  {
    "Compound": "Cl.Cl.NCC(C(=O)Nc1ccc2cnccc2c1)c1ccc(B(O)O)cc1 (stereo not shown) [Compound 10]",
    "recovery at 120 min, 5 μM (%)": 108
  }
]

* * *

# Measured On: MRCKa (Homo sapiens (Human))
# Sequence (Q5VT25 whole entry): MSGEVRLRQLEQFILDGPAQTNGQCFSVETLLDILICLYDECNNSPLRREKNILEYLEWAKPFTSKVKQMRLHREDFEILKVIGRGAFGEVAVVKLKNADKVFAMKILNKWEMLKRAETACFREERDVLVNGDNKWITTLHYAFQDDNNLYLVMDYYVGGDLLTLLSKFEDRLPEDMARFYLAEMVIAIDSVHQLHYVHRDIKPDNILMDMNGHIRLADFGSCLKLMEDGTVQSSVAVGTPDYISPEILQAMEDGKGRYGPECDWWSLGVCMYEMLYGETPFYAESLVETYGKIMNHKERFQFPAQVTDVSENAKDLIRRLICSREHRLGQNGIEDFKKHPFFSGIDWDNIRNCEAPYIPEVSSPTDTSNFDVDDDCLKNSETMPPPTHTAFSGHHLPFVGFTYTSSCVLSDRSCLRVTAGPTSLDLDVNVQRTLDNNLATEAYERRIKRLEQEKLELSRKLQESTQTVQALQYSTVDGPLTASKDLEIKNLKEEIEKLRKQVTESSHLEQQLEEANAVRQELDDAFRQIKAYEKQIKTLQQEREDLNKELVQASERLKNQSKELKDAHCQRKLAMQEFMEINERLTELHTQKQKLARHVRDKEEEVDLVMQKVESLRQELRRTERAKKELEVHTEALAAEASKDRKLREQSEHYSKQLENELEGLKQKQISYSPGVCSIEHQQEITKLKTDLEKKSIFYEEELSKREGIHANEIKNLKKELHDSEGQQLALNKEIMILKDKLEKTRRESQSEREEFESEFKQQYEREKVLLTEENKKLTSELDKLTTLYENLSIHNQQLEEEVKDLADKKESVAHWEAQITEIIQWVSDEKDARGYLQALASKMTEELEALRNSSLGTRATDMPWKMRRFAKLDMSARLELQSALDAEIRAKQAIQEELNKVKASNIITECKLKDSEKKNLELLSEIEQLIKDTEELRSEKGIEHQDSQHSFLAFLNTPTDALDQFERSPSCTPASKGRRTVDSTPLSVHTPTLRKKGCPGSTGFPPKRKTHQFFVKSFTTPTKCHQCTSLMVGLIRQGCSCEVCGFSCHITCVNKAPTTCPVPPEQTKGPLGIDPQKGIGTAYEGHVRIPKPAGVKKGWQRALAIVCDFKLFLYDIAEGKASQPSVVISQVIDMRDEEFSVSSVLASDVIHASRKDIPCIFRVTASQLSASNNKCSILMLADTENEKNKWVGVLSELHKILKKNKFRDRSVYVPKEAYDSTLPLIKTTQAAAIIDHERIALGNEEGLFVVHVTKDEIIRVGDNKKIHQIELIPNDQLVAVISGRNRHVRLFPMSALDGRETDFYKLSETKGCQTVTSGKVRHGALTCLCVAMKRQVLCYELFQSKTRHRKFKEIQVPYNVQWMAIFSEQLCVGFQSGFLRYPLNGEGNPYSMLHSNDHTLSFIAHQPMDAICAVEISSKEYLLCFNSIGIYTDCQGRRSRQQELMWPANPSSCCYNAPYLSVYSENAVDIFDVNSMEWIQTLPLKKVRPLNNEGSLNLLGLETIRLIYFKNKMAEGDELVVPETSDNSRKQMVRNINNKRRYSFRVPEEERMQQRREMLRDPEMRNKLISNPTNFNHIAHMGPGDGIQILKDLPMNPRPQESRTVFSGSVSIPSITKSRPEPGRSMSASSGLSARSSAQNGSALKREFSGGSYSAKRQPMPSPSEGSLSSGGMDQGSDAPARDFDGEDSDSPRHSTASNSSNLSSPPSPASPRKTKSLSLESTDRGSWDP

[
  {
    "Compound": "NCC(C(=O)Nc1ccc2cnccc2c1)c1ccc(CO)cc1 (racemic) [Netarsudil-M1-racemate•2HCl, Netarsdil-M1-(racemic), reference compound]",
    "IC50": "> 10 µM"
  }
]

* * *

# System: MDR1
# Assay: MDR1-MDCK Permeability
# Format: in vitro ADME
# Particulars: dog, MDCK-MDR1, pH 7.4, A to B, 5 μM, 120 minutes

[
  {
    "Compound": "Cl.Cl.NCC(C(=O)Nc1ccc2cnccc2c1)c1ccc(B(O)O)cc1 (stereo not shown) [Compound 10]",
    "Unit Name": "%",
    "recovery at 120 min, 5 μM": 95.5
  }
]

* * *

# Assay: Caco-2 Permeability
# Assay type: in vitro ADME
# Particulars: human, Caco-2, pH 7.4, A to B; read-out: Papp Avg

[
  {
    "Compound": "Cl.Cl.NCC(C(=O)Nc1ccc2cnccc2c1)c1ccc(B(O)O)cc1 (stereo not shown) [Compound 10]",
    "Unit Name": "×10⁻⁶ cm/s",
    "Papp at 120 min, 5 μM": 0.192
  }
]

* * *

Parameter pIC50: see the listing below.
# Measured On: UniProt:P17612
# Assay: PKA ADP-Glo kinase enzyme inhibition assay
# Format: biochemical
# Particulars: read-out: PKAIC50
# Experimental: We measured ROCK and PKA kinase enzyme activity inhibition by compounds using commercially available ROCK1 (Promega Corporation, cat #V9581), ROCK2 (Promega, cat #V4045), and PKA kinase (Promega, cat #V4247) ADP-Glo™ assay kits. ADP-Glo™ Kinase Assay is a luminescent ADP detection assay that provides a homogeneous method to measure kinase activity by quantifying the amount of ADP produced during a kinase reaction. […] The light generated is measured using a luminometer. […]
pIC50: −log10 of the molar value.
Readout Type: pIC50

[
  {
    "Molecule": "NCC(C(=O)Nc1ccc2cnccc2c1)c1ccc(CO)cc1 (racemic) [Netarsudil-M1-racemate•2HCl, Netarsdil-M1-(racemic), reference compound]",
    "Value Measured": 7.64
  },
  {
    "Molecule": "Cl.Cl.NCC(C(=O)Nc1ccc2cnccc2c1)c1ccc(B(O)O)cc1 (centres unmarked) [Compound 10]",
    "Value Measured": 7.28
  }
]

* * *

# System: MDR1
# Assay: MDR1-MDCK Permeability
# Assay type: in vitro ADME
# Particulars: dog, MDCK-MDR1, pH 7.4, A to B; read-out: Papp R1

[
  {
    "Molecule": "Cl.Cl.NCC(C(=O)Nc1ccc2cnccc2c1)c1ccc(B(O)O)cc1 (stereo not shown)",
    "Papp at 120 min, 5 μM": "< 0.0566 ×10⁻⁶ cm/s"
  }
]

* * *

# System: MDR1
# Assay: MDR1-MDCK Permeability
# Format: in vitro ADME
# Particulars: dog, MDCK-MDR1, pH 7.4, B to A; read-out: Papp R2

[
  {
    "Molecule": "Cl.Cl.NCC(C(=O)Nc1ccc2cnccc2c1)c1ccc(B(O)O)cc1 (stereo not shown)",
    "Papp at 120 min, 5 μM": "< 0.772 nm/s"
  }
]

// provenance: patent US12479866B2
